# credit: PubChem BioAssay (NCI)

System: HCT-116 colon
methodDescription: NCI-60 one-dose screen, 48 h (100 = growth as untreated, 0 = no growth, -100 = all killed)
statedConditions: 10 µM unless noted
About 83,000 compounds went through this panel and 20% of them were active in at least one assay; those are over-represented in the sample as a whole.
I'd appreciate it if you could supply growth values for the items below.
Quick reminder: number only, in %, skip the unit.

Qu. Which growth is reported with HCT-116 colon for this entry: O=C1/C(=C/c2cn(-c3ccccc3)nc2-c2ccccc2)SC(=S)N1C1CCCCC1 ?
Ans. 90.1

Qu. And then COC(=O)c1c(C)c2n(c1C)C(=O)C(c1ccccc1)=C2 , what is it?
Ans. 74.2

Qu. And then CC1(C)CC(=O)C2=C(C1)N(c1ccc(OC(F)(F)F)cc1)C(N)=C(C#N)C2c1ccc(Br)cc1F (stereo not given) , what is it?
Ans. 46.7

Qu. And then COc1ccc(-c2noc(C(=O)O)c2-c2cc(OC)c(OC)c(OC)c2)cc1 , what is it?
Ans. 19.4

Qu. And then O=C1Nc2ccccc2/C1=C/c1nc2ccccc2c(=O)[nH]1 , what is it?
Ans. 76.7

Qu. And then c1ccc(Cn2cc3c(c2)-c2oncc2CC3)cc1 , what is it?
Ans. 9.28

Qu. And then CCCNC(=O)Nc1ccc2cc3ccc(NC(=O)NCCC)cc3nc2c1 , what is it?
Ans. 76.3

Qu. And then CN(C)CCNC(=O)c1ccc(-c2nc3ccc4[nH]ncc4c3c3c2C2CCC3C2)cc1 (stereo not given) , what is it?
Ans. 9.52

Qu. And then O=C1Nc2ccc(C(=O)O)cc2/C1=N/c1nnc(Sc2ccccc2)s1 , what is it?
Ans. 104

Qu. And then Cn1cc(C(=O)c2nc(-c3c[nH]c4ccccc34)no2)c2cc(F)ccc21 , what is it?
Ans. 19.5

====

System: NCI-H23 lung
methodDescription: NCI-60 one-dose screen, 48 h (100 = growth as untreated, 0 = no growth, -100 = all killed)
statedConditions: 10 µM unless noted
This is part of a sample that, as a whole, favours compounds with a hit. Of some 83,000 tested, about 20% had one in any assay.
assayReadout: growth (%)
Quick reminder: number only, in %, skip the unit.

Qu. Fill blank: measured growth of the compound O=C(/C=C/c1ccccc1)Nc1ncc(Cc2ccccc2Cl)s1 is ____.
Ans. 51.8

Qu. And then CCOC(=O)c1nn(-c2ccc(S(N)(=O)=O)cc2)c2nc(C)cc(=O)n12 , what is it?
Ans. 98.5

Qu. And then CS(=O)(=O)Nc1cncc(-c2ccc3ncnc(Nc4cncc(Cl)c4)c3c2)c1 , what is it?
Ans. 80

Qu. And then Cc1ccc(NC(=O)Cn2cc(CN3CCN(c4ccnc5cc(Cl)ccc45)CC3)nn2)cc1 , what is it?
Ans. 90

Qu. And then O=C(Cn1cc(CSc2nc3ccccc3o2)nn1)Nc1ccc(F)cc1F , what is it?
Ans. 96

Qu. And then Cc1cccc(/C=C/c2c(C(=O)/C=C/c3ccccc3)c(C)nc3ccccc23)c1 , what is it?
Ans. -57.9

Qu. And then O=C(CSc1nnc(-c2cnccn2)n1-c1ccccc1)c1ccc(Cl)cc1 , what is it?
Ans. 108

Qu. And then CC1(C)COB(OCC(C)(C)COB2OCC(C)(C)CO2)OC1 , what is it?
Ans. 101

Qu. And then N#Cc1c(-c2ccc(Cl)cc2)nc(NN2C(=O)c3ccccc3C2=O)nc1N1CCOCC1 , what is it?
Ans. 97.2

Qu. And then C[C@@H](CO)[C@@H]1CCC=C2CC[C@]3(C)[C@H](CC[C@@H]4[C@@]5(C)CCCNC(C)(C)[C@@H]5CC[C@]43C)[C@H]21 , what is it?
Ans. 67.9

Qu. And then C=CCc1c(O)c(C(=O)/C=C/c2ccccc2)c(OC)c2ccoc12 , what is it?
Ans. 53.4

Qu. And then Cn1cc(-c2csc(-c3cn(C(=O)OC(C)(C)C)c4ccc(Br)cc34)n2)c2ccnc(Cl)c21 , what is it?
Ans. 81.7

Qu. And then CCN(CC)CCn1c2ccc(O)cc2c2sc3cc(O)ccc3c(=O)c21 , what is it?
Ans. 25.8

Qu. And then CCCCNC(=O)CC1=C(C)/C(=C/c2[nH]c(-c3ccc[nH]3)cc2OC)N=C1C , what is it?
Ans. 48.6

Qu. And then CC(=O)O[C@@H]1C[C@]2(C(C)C)O[C@@]1(C)[C@@H]1CCC(C)=C1[C@@H]2OC(=O)/C=C/c1ccccc1 , what is it?
Ans. 95.3

Qu. And then Cn1cc(-c2csc(-c3c[nH]c4ccccc34)n2)c2cnccc21 , what is it?
Ans. 85.5

Qu. And then COc1ccc(-c2ccc(=O)oc2-c2cc(OC)c(OC)c(OC)c2)cc1O , what is it?
Ans. 25.9

Qu. And then CCCCCOC(=O)c1c(C)[nH]c(/C=C2\N=C(c3ccc[nH]3)C=C2OC)c1C , what is it?
Ans. -59.1

Qu. And then CCOC(=O)C1=C(c2ccccc2)N=C2SC=C(c3ccc(Cl)cc3)N2C1c1ccc(Cl)cc1 (stereo unspecified) , what is it?
Ans. 64.2

Qu. And then CC(=O)Oc1ccc(C)cc1C , what is it?
Ans. 103

Qu. And then COc1ccc(/C=C(\C#N)n2nnc3cc(F)c(F)cc32)cc1 , what is it?
Ans. 74.7

====

Test system: HCT-15 colon
methodDescription: NCI-60 one-dose screen, 48 h
statedConditions: 10 µM unless noted
About 83,000 compounds went through this panel and 20% of them were active in at least one assay; those are over-represented in the sample as a whole. The source made the active and inactive calls. Rule for the calls: active = growth percent below 10; inactive = the rest.
Write down one outcome, taken from 1.0 (active), 0.0 (inactive)

Qu. Recorded call for CN(C)CC(C)(C)C(=O)/C=C/c1ccccc1 ?
Ans. 1.0

Qu. And then O=C1C(Cl)=C(NCCCCCCNC2=C(Cl)C(=O)c3ccccc3C2=O)C(=O)c2ccccc21 , what is it?
Ans. 0.0

Qu. And then CN1C(=O)/C(=C\c2c(Cl)cccc2Cl)c2ccccc21 , what is it?
Ans. 0.0

Qu. And then CC(C)=CCC[C@](C)(O)[C@H]1CC[C@]2(C)[C@@H]1CC[C@@H]1[C@@]3(C)C/C(=C/c4ccco4)C(=O)C(C)(C)[C@@H]3CC[C@]12C , what is it?
Ans. 0.0

Qu. And then CC(=O)n1nc(C(=O)OC(C)(C)c2ccccc2)c2ccccc21 , what is it?
Ans. 0.0

Qu. And then CN(C)CC1CCC(CN(C)C)C1=O (centres undefined) , what is it?
Ans. 0.0

Qu. And then O=S(=O)(NCCNc1nccc(-c2c(-c3ccc(F)c(O)c3)nc3occn23)n1)c1ccc(Cl)cc1 , what is it?
Ans. 0.0

Qu. And then CCN1C(=S)N(c2ccccc2)C2C1NN=c1s/c(=C3\C(=O)N(C(C)C)c4ccccc43)c(=O)n12 (centres undefined) , what is it?
Ans. 0.0

Qu. And then O=C(/C=C/c1cccc(Cl)c1)c1ccc(Nc2nc(Nc3ccc(F)cc3)nc(Nc3ccc(Cl)cc3)n2)cc1 , what is it?
Ans. 0.0

====

Tested on: PC-3 prostate
methodDescription: NCI-60 one-dose screen, 48 h (100 = growth as untreated, 0 = no growth, -100 = all killed)
statedConditions: 10 µM unless noted
Compounds without any hit were thinned out: in the full panel of roughly 83,000, 20% have a hit.
assayReadout: growth (%)
Quick reminder: number only, in %, skip the unit.

Qu. Fill blank: measured growth of the compound CCN(CC)CCCCCNc1cc(OC(=O)c2ccc(Cl)cc2)cc2cccnc12 is ____.
Ans. 88.8

Qu. And then Cc1cc(S(=O)(=O)/N=C(\N)n2nc(C)c(C)c2C)c(SCc2ccccc2)cc1Cl , what is it?
Ans. 40.2

Qu. And then COc1cc(-c2cncn2-c2ccc(-c3nc4ccc(F)cc4s3)cc2)ccc1F , what is it?
Ans. 107

Qu. And then Cc1ccc(Nc2cc(N)nc(N)n2)cc1Cl , what is it?
Ans. 94.2

Qu. And then CCNCCNc1cc(-c2ccc(C(F)(F)F)cc2)c(C#N)c2nc3ccccc3n12 , what is it?
Ans. -72.6

Qu. And then O=C1NC(=O)C(Cc2ccc(OCc3ccc(-c4ccc(Cl)cc4Cl)cc3)cc2)S1 (stereo unspecified) , what is it?
Ans. 32.2

Qu. And then N#CC1=C(N)Oc2c(ccc3ccccc23)C1c1ccccc1 (stereo unspecified) , what is it?
Ans. 6.19

Qu. And then Cc1ccc(-c2nc([P+](c3ccccc3)(c3ccccc3)c3ccccc3)c(S(=O)(=O)c3ccc(C)cc3)o2)cc1 , what is it?
Ans. 11.2

Qu. And then Cn1cc(-c2csc(-c3cn(C(=O)OC(C)(C)C)c4ccc(Br)cc34)n2)c2ccnc(Cl)c21 , what is it?
Ans. 44.2

Qu. And then N#Cc1c(-c2ccccc2)cc(-c2ccccc2)n(CCCC(=O)Nc2ccccc2N)c1=O , what is it?
Ans. 67.4

Qu. And then CC(=O)c1c(C)nc(SCC(=O)Nc2cccc(O)c2)n1-c1ccc(Cl)cc1 , what is it?
Ans. 89.6

Qu. And then COc1ccc(NC2=C(I)C(=O)c3ncccc3C2=O)cc1 , what is it?
Ans. 12.3

Qu. And then COc1ccc(NC(=O)c2sc3nc(C)c(C(=O)/C=C/c4ccccc4)cc3c2N)cc1 , what is it?
Ans. 52.6

Qu. And then O=C(Nc1ccccc1)Nc1ncnc2c1ncn2-c1ccc(Cl)cc1 , what is it?
Ans. 104

Qu. And then O=C1C(Cl)=C(Nc2ccc(S(=O)(=O)N3CCOCC3)cc2)C(=O)c2ccccc21 , what is it?
Ans. 46

Qu. And then CSc1oc(C)nc1[P+](c1ccccc1)(c1ccccc1)c1ccccc1 , what is it?
Ans. 52.1

Qu. And then CC1CCN(S(=O)(=O)c2ccc(S(=O)(=O)N3CCCC(c4nc5c(nnn5Cc5cccc(Cl)c5)c(=O)[nH]4)C3)cc2)CC1 (stereo unspecified) , what is it?
Ans. 47

Qu. And then O=C1/C(=C/c2ccccc2O)CC/C1=C\c1ccccc1O , what is it?
Ans. 8.94

Qu. And then Cc1c[n+](Cc2ccc3ccccc3c2)cn1Cc1ccc2ccccc2c1 , what is it?
Ans. 10.3

Qu. And then O=C(/C=C/c1ccccc1)Nc1ncc(Cc2ccccc2Cl)s1 , what is it?
Ans. 25.8

Qu. And then CCN(CC)Cc1cc(C=C2C(=O)NC(=S)NC2=O)cc(OC)c1O , what is it?
Ans. 102

Qu. And then COc1cc(-c2nccc3[nH]c(-c4ccc5cc[nH]c5c4)nc23)cc(OC)c1OC , what is it?
Ans. -0.946

Qu. And then C[C@@H](CO)[C@@H]1CCC=C2CC[C@]3(C)[C@H](CC[C@@H]4[C@@]5(C)CCCNC(C)(C)[C@@H]5CC[C@]43C)[C@H]21 , what is it?
Ans. 47.1

Qu. And then CCN(CC)CCn1c2ccc(O)cc2c2sc3cc(O)ccc3c(=O)c21 , what is it?
Ans. 31.5

Qu. And then O=C(Cn1cc(CSc2nc3ccccc3o2)nn1)Nc1ccc(F)cc1F , what is it?
Ans. 101

Qu. And then O=C(O)c1cn(C2CC2)c2cc(N3CCN(C(=O)N(c4ccccc4)c4nc(-c5ccccc5)cs4)CC3)c(F)cc2c1=O , what is it?
Ans. 8.6

Qu. And then Cc1ccc(CNc2ccc3nc(CCC4CCCCC4)[nH]c3c2)cc1 , what is it?
Ans. 38.5

Qu. And then Nc1c(C(=O)Nc2ccccc2C(F)(F)F)sc2nc3c(cc12)CCC3 , what is it?
Ans. 100

Qu. And then Nc1c(C(=O)Nc2ccncc2)sc2nc3c(cc12)C(O)CCC3 (stereo unspecified) , what is it?
Ans. 94.6

Qu. And then COc1c(C(=O)Nc2ccc(C)c(Br)c2)ccc2ccccc12 , what is it?
Ans. 87.7

Qu. And then CC(C)c1ccc(-n2c(=S)[nH]c3sc4cc(O)ccc4c3c2=O)cc1 , what is it?
Ans. 100

Qu. And then CCOc1ccccc1Cn1ccnc1CCc1c(Cl)c(O)cc(O)c1C(=O)OC , what is it?
Ans. 86.9

Qu. And then CCn1c(SCC(=O)N/N=C(\C)c2ccc(Cl)cc2)nc2c1c(=O)n(C)c(=O)n2C , what is it?
Ans. 97.5

Qu. And then COc1ccc(CN2c3ccccc3Sc3ccccc32)cc1F , what is it?
Ans. 21.2

Qu. And then COC1=CC(c2ccc[nH]2)=N/C1=C\c1[nH]c(C)c(CC(=O)OCc2ccccc2)c1CCC(=O)OCc1ccccc1 , what is it?
Ans. -40.3

Qu. And then CCCOC(=O)Nc1nc2ccc(SCC(C)C)cc2s1 , what is it?
Ans. 45.9

Qu. And then NC(=O)c1c(NC(=O)c2ccc3ccccc3c2)sc2c1CCC(=O)C2 , what is it?
Ans. 16.6

Qu. And then CC(=O)O[C@H]1CC2CCC3C(CC[C@@]4(C)C3C[C@H]([N+]3(C)CCCCC3)[C@@H]4OC(C)=O)[C@@]2(C)C[C@@H]1N1CCCCC1 (stereo partly specified) , what is it?
Ans. 92.8

Qu. And then Oc1c(I)cc(I)cc1CNCc1ccccn1 , what is it?
Ans. 39.5

Qu. And then Cn1ccc(=O)c(C(=O)Nc2nsc3ccc([N+](=O)[O-])cc23)c1 , what is it?
Ans. 56.8

Qu. And then Nc1[nH]n2cc(-c3ccccc3)nc2c1N=Nc1ccc(S(N)(=O)=O)cc1 , what is it?
Ans. 32.4
